# Target: T1, Kv1.1 (K-Kv1.1, mKate2-tagged) (Homo sapiens, UniProt Q09470)
# T1 chain: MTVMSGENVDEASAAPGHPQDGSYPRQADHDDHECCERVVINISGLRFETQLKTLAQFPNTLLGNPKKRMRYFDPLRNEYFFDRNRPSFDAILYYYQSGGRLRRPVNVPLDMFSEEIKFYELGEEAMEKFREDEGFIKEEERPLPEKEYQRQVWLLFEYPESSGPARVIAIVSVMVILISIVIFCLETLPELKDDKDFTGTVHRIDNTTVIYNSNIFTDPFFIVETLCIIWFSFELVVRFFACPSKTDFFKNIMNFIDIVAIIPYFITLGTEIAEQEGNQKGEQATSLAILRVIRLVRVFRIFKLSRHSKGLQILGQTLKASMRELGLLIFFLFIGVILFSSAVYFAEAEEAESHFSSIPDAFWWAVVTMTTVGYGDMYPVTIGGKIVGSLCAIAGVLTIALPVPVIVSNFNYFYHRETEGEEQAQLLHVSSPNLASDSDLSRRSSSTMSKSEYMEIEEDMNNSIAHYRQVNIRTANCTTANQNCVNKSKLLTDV
# Assay details: competitive confocal fluorescence binding with A-HgTx, complete medium
pKd: −log10 of the molar value.
Endpoint name: pKd

Binder | Test result
TVINVKCTSPKQCLKPCKDLYGPHAGAKCMNGKCKCYNN [Ce1] | 7.96
TIINVKCTSPKQCLPPCKAQFGQSAGAKCMNGKCKCYPH [margatoxin (MgTx)] | 9.52
TVIDVKCTSPKQCLPPCKAQFGIRAGAKCMNGKCKCYPH [hongotoxin 1 (HgTx1)] | 10.52
